All values here come from the RepoRT retention time repository (doi:10.1021/acs.analchem.1c00972).

# Test method notes: RP, Waters ACQUITY UPLC BEH C18, 100 × 1 mm, 1.7 µm, 50 °C, 0.3 mL/min, estimated dead time 0.17 min; A: water + 0.1% formic acid + 20 mM ammonium formate; B: methanol + 0.1% formic acid + 20 mM ammonium formate; gradient (min/%B) 0/0 15/100 21/100 22/0 30/0
# Test settings: stereoisomer not certain
Value kind: LC retention time
Report the figure along with its unit, number first.

Look over these answered cases.
Request: Sample CCCCC(CC)COP(=O)(O)OCC(CC)CCCC (stereo not given) [Bis(2-ethylhexyl)phosphate] — what was its LC retention time?
Response: 17.2 min

Request: Bench note: what LC retention time did CC(=O)C1(C)CC2=C(CCCC2(C)C)CC1C (stereo not given) [ISO E Super] show?
Response: 17.7 min

Request: Given the compound CCN(CC)CC#CCOC(=O)C(O)(c1ccccc1)C1CCCCC1 (stereo not given) [Oxybutynin] , what is its reported LC retention time?
Response: 13.6 min

Request: # get_value(readout='LC retention time', item= CNC(=O)Nc1ccc(Cl)c(Cl)c1 [1-(3,4-Dichlorphenyl)-3-methyl-Harnstoff] )
Response: 12.8 min

Now for the compound whose LC retention time we want.
Request: For the compound c1ccc(-c2ccc(C(c3ccccc3)n3ccnc3)cc2)cc1 (stereo not given) [Bifonazol] , what LC retention time is on record?
Response: 13.9 min
